Every entry's value here was drawn from ChEMBL document CHEMBL4334423.

Biological target: Acetylcholinesterase (Homo sapiens)
Sequence (P22303 whole entry): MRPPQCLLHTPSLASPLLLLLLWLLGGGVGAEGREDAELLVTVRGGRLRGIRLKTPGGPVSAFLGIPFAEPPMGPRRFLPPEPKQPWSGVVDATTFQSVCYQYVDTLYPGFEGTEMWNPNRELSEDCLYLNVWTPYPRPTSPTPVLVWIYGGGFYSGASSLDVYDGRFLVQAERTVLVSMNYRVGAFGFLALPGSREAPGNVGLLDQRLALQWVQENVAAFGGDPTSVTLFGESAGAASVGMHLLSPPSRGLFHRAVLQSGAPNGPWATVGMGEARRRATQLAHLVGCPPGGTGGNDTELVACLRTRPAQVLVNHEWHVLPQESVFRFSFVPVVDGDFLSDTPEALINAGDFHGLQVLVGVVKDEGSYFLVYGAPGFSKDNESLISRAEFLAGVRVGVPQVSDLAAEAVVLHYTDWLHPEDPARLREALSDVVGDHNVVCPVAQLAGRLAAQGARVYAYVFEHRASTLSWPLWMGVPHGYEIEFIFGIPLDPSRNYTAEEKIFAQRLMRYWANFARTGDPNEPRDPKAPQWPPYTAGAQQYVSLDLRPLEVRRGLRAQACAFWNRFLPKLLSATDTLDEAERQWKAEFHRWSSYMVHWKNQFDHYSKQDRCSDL
Assay: Inhibition of human recombinant AChE expressed in HEK293 cells using acetylthiocholine iodide as substrate by Ellman's method
Listing of recorded pIC50 by entry.
# pIC50 = -log10(concentration in molar units)

| Molecule | pIC50 |
| --- | --- |
| CCN1CCN(c2ccc(C3CC(c4ccc(OC)cc4)=NN3C(C)=O)cc2)CC1 (stereo unspecified) | 3.66 |

Documented pIC50 of CCN1CCN(c2ccc(C3CC(c4ccc(OC)c(OC)c4)=NN3C(C)=O)cc2)CC1 (stereo unspecified) : 4.32

For COc1ccc(C2=NN(C(C)=O)C(c3ccc(-n4ccnc4)cc3)C2)cc1OC (stereo unspecified) the molecule record lists pIC50 as 3.69
